Below is a list of entries, each paired with its recorded EC50 value.
systemUnderTest: T1, GIP receptor (UniProt P48546 22-466)
T1 sequence (looked up): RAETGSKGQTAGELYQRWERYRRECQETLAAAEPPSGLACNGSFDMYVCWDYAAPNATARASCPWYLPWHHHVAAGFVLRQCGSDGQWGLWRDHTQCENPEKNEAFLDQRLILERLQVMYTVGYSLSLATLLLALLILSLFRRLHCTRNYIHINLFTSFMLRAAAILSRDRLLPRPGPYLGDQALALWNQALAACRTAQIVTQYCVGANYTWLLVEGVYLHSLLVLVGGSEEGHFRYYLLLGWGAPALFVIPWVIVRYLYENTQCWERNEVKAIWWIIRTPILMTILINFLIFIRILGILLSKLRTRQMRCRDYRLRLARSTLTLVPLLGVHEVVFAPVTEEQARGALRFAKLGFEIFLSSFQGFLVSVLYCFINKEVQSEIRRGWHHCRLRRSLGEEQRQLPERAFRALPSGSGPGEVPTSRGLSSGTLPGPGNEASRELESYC
protocolNotes: cell-based or functional assay
Where no end group is shown, it is not given here.

binder: YXEGTFISDYSIAMDKIHQQDFVNWLLAQKGKKNWLKHNITQ (C-terminal amide) [mt-100]
EC50 [nM]: 0.016
--
binder: YSQGTFTSDYSKYLDEIHQKDFVNWLLAGGPSSGAPPPS-NH2 [mt-116]
EC50 [nM]: 0.617
--
binder: YAPGTFISDYSIAMDKIHQQDFVNWLLAQKGKKNWLKHNITQ-NH2 [mt-101]
EC50 [nM]: 71.3
